# measured_target: T1, Hof1, Q05080
# T1 sequence (Q05080 590-669, looked up): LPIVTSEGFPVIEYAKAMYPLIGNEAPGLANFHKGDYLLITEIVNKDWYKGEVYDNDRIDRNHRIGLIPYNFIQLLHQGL
# protocol_summary: SPOT array
# run_conditions: median of control spots 4086
quantity: SPOT intensity

Reference set (5 entries):
[
  {
    "binder": "GERSRPLVISILSSA",
    "SPOT intensity": 0
  },
  {
    "binder": "STKKPRPPVKSKPKH",
    "SPOT intensity": 0
  },
  {
    "binder": "EEEEEHPPLPARRKS",
    "SPOT intensity": 0
  },
  {
    "binder": "VPKEPAPAPPPEPDM",
    "SPOT intensity": 0
  },
  {
    "binder": "RPPRPPPKPLHLRTE",
    "SPOT intensity": 3
  }
]

[I] RRLRDKYKLPIVDAD
[II] RKRAPTPPAPSRSEK
[III] VATSTSPKLPPRGKQ
Exercise: Rank items: key SPOT intensity, increasing. List the labels, following the order given in the request.
Solution: II, III, I
(II: 0, III: 2, I: 9)

[a] KRRAPPPVPKKPSSR
[b] NVLRKILEIPLHSFS
[c] FFRRSELYLPNSSKA
[d] TKHKAPPPPPPTAET
Exercise: With regard to SPOT intensity, arrange the entries in ascending order, please. Field: ranking. Enter the labels in the order requested.
Solution: b, d, a, c

[I] KNRKNLPTIPIRLSG
[II] VNIPSPSSSPPPIPK
Exercise: API: POST /compare with I and II ; response names the item with higher SPOT intensity. Give the label under which the chosen entry appears.
Solution: I
(I: 26, II: 0)
